Data origin: patent US20230072683A1

For each entry below, report its inhibition at 0.1 µM value.
# Measured on: PI3K-δ (PI3K(p1108/p857) (h)) (Homo sapiens, UniProt O00329)
# Sequence (O00329 whole entry): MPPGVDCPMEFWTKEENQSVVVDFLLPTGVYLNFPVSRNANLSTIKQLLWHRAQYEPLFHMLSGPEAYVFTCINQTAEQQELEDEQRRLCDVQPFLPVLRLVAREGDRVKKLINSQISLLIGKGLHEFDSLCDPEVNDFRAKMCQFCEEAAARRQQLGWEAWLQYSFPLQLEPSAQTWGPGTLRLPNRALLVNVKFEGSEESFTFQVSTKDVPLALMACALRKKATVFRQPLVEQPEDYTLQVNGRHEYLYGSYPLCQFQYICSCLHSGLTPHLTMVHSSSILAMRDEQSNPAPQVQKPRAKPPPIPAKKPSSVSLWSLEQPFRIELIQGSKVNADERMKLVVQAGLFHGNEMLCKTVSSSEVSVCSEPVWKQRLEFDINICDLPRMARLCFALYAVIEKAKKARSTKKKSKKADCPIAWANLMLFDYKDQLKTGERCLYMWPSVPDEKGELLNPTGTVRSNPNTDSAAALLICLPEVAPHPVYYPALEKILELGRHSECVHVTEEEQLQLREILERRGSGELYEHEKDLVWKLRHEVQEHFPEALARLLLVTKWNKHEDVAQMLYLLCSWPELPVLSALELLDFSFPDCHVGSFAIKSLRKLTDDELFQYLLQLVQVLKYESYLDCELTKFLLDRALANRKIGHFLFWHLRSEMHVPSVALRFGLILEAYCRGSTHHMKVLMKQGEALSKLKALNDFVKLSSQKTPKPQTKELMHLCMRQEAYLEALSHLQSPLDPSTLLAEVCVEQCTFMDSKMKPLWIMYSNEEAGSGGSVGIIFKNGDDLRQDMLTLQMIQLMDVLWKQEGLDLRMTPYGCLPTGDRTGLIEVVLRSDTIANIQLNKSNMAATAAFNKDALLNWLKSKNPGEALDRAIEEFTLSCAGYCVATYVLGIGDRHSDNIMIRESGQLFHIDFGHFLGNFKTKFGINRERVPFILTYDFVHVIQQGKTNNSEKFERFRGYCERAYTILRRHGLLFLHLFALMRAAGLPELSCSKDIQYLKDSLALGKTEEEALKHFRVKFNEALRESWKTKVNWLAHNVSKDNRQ
# Sequence (P27986 whole entry partner): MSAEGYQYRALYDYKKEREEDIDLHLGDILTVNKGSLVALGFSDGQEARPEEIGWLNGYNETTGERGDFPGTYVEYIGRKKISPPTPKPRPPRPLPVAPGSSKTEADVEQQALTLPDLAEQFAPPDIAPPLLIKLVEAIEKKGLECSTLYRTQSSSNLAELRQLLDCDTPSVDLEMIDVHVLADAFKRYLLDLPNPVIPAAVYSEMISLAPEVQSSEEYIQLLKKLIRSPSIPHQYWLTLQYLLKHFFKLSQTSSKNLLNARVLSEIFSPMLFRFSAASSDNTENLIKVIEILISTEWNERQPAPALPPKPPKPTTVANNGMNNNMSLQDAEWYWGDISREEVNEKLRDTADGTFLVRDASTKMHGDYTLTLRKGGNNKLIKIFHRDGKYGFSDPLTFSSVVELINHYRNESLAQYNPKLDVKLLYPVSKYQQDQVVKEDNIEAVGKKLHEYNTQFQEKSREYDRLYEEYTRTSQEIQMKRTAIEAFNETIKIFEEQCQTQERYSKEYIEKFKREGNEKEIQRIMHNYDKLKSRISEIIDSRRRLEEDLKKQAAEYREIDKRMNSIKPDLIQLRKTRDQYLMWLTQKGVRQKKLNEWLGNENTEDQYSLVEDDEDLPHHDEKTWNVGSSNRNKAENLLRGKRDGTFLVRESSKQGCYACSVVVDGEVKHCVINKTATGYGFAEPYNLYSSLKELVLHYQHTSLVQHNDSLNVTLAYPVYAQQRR
# Method description: Evaluation of inhibitory activity against PI3K-δ (HTRF kinase assay)
# Assay type: biochemical
# Assay setup: compound at 0.1 μM; read-out: EXP_VALUE(% Inhibition) PI3K-δ 0.1 μM
Number first, unit second.

Input line: Would you kindly share the measured inhibition at 0.1 µM for CCc1ncc(-c2cccc3c(Cl)c([C@H](C)Nc4ncnc5[nH]ccc(=O)c45)n(-c4ccccc4)c(=O)c23)cn1 ?
Output line: 80%

Input line: And C[C@H](Nc1ncnc2[nH]ccc(=O)c12)c1c(Cl)c2cccc([S@@](=N)(=O)c3ncccn3)c2c(=O)n1-c1ccccc1 ?
Output line: 9%

Input line: Then this molecule: CCC[S@@](=N)(=O)c1cccc2c(Cl)c([C@H](C)Nc3ncnc4[nH]ccc(=O)c34)n(-c3ccccc3)c(=O)c12
Output line: 71%

###

# Measured on: PI3K-δ (PI3K(p1108/p857) (h)) (Homo sapiens, UniProt O00329)
# Method description: Evaluation of inhibitory activity against PI3K-δ (HTRF kinase assay)
# Format: biochemical
# Assay setup: compound concentration 0.01 μM; read-out: EXP_VALUE(% Inhibition) PI3K-δ 0.01 μM
Would you mind labelling by inhibition at 0.01 µM? At or over 80% is T, under is F.

Input line: Is inhibition at 0.01 µM for C[C@H](Nc1ncnc2[nH]ccc(=O)c12)c1c(Cl)c2cccc(NC3CCOCC3)c2c(=O)n1-c1ccccc1 [Example 332] at or above 80%?
Output line: F

Input line: Another compound to look at: COc1ccc(Nc2cccc3c(Cl)c([C@H](C)Nc4ncnc5[nH]ccc(=O)c45)n(-c4ccccc4)c(=O)c23)cc1 [Example 345]
Output line: F

Input line: What about Cc1ccc(-c2cccc3c(Cl)c([C@H](C)Nc4ncnc5[nH]ccc(=O)c45)n(-c4ccccc4)c(=O)c23)cc1 [Example 255] ?
Output line: F

Input line: Also, C[C@H](Nc1ncnc2[nH]ccc(=O)c12)c1c(Cl)c2cccc(-c3cnc(N(C)C)nc3)c2c(=O)n1-c1ccccc1 [Example 112] please.
Output line: T

Input line: Same lookup for C[C@H](Nc1ncnc2[nH]ccc(=O)c12)c1cc2cccc(-c3cnn(C)c3)c2c(=O)n1-c1ccccc1 [Example 15] , please.
Output line: T

Input line: Can you check C[C@H](Nc1ncnc2[nH]ccc(=O)c12)c1c(Cl)c2cccc(-c3ccc4c(c3)OCCN4)c2c(=O)n1-c1ccccc1 [Example 120] next?
Output line: F

Input line: Let us now turn to C[C@H](Nc1ncnc2[nH]ccc(=O)c12)c1c(Cl)c2cccc(C(=O)NC(C)(C)C)c2c(=O)n1-c1ccccc1 [Example 285]
Output line: F

Input line: And then C[C@H](Nc1ncnc2[nH]ccc(=O)c12)c1c(Cl)c2cccc(-c3ccc(-c4cccs4)cc3)c2c(=O)n1-c1ccccc1 [Example 93] , what is it?
Output line: F

Input line: And then C[C@H](Nc1ncnc2[nH]ccc(=O)c12)c1c(Cl)c2cccc(-c3cc(O)c(O)c(F)c3)c2c(=O)n1-c1ccccc1 [Example 36] , what is it?
Output line: F

Input line: Item: C[C@H](Nc1ncnc2[nH]ccc(=O)c12)c1c(Cl)c2cccc(-c3ccc[nH]3)c2c(=O)n1-c1ccccc1 [Example 258]
Output line: T

Input line: Request: C[C@H](Nc1ncnc2[nH]ccc(=O)c12)c1c(Cl)c2cccc(-c3ccc4ncncc4c3)c2c(=O)n1-c1ccccc1 [Example 32]
Output line: T

Input line: Please give the result for C[C@H](Nc1ncnc2[nH]ccc(=O)c12)c1c(Cl)c2cccc(NC(=O)c3ccccc3)c2c(=O)n1-c1ccccc1 [Example 299] too.
Output line: F

Input line: Next compound up: COc1cccc2c(Cl)c([C@H](C)Nc3ncnc4[nH]ccc(=O)c34)n(-c3ccccc3)c(=O)c12 [Example 365]
Output line: F

Input line: Entry C[C@H](Nc1ncnc2[nH]ccc(=O)c12)c1c(Cl)c2cccc(-c3cncc(N4CCOCC4)n3)c2c(=O)n1-c1ccccc1 [Example 210] please
Output line: F

Input line: And what about the compound Cc1ccsc1-c1cccc2c(Cl)c([C@H](C)Nc3ncnc4[nH]ccc(=O)c34)n(-c3ccccc3)c(=O)c12 [Example 243] ?
Output line: F

Input line: Another compound: C[C@H](Nc1ncnc2[nH]ccc(=O)c12)c1c(Cl)c2cccc(-c3ccccc3F)c2c(=O)n1-c1ccccc1 [Example 122]
Output line: F

Input line: And for C[C@H](Nc1ncnc2[nH]ccc(=O)c12)c1c(Cl)c2cccc(-c3ncccn3)c2c(=O)n1-c1ccccc1 [Example 35] ?
Output line: F

Input line: Now the compound C[C@H](Nc1ncnc2[nH]ccc(=O)c12)c1c(Cl)c2cccc(-c3ccc(F)cc3)c2c(=O)n1-c1ccccc1 [Example 63]
Output line: T

Input line: Similarly, C[C@H](Nc1ncnc2[nH]ccc(=O)c12)c1c(Cl)c2cccc(-c3ccc(-c4ccncc4)cc3)c2c(=O)n1-c1ccccc1 [Example 105] ?
Output line: F

Input line: Let us now turn to CC(C)S(=O)(=O)c1ccc(-c2cccc3c(Cl)c([C@H](C)Nc4ncnc5[nH]ccc(=O)c45)n(-c4ccccc4)c(=O)c23)cc1 [Example 209]
Output line: F

Input line: What about CCOc1ccc(-c2cccc3c(Cl)c([C@H](C)Nc4ncnc5[nH]ccc(=O)c45)n(-c4ccccc4)c(=O)c23)cn1 [Example 183] ?
Output line: T

Input line: Again, but for C[C@H](Nc1ncnc2[nH]ccc(=O)c12)c1c(Cl)c2cccc(-c3cnn(C)c3)c2c(=O)n1-c1ccccc1 [Example 5]
Output line: T

Input line: Same for C[C@H](Nc1ncnc2[nH]ccc(=O)c12)c1c(Cl)c2cccc(-c3cnc4c(c3)OCCO4)c2c(=O)n1-c1ccccc1 [Example 132]
Output line: T

Input line: Record: C[C@H](Nc1ncnc2[nH]ccc(=O)c12)c1c(Cl)c2ccccc2c(=O)n1-c1ccccc1 [Example 38]
Output line: F

Input line: Field entry: C[C@H](Nc1ncnc2[nH]ccc(=O)c12)c1c(Cl)c2cccc(-c3ncc[nH]3)c2c(=O)n1-c1ccccc1 [Example 287]
Output line: F

Input line: Input C[C@H](Nc1ncnc2[nH]ccc(=O)c12)c1c(Cl)c2cccc(-c3ccc4c(c3)OCO4)c2c(=O)n1-c1ccccc1 [Example 60]
Output line: T

###

# Measured on: PI3K-δ (PI3K(p1108/p857) (h)) (Homo sapiens)
# Method description: Evaluation of inhibitory activity against PI3K-δ (HTRF kinase assay)
# Assay type: biochemical
# Assay setup: compound concentration 0.01 μM; read-out: EXP_VALUE(% Inhibition) PI3K-δ 0.01 μM
Please go through the items and note down their inhibition at 0.01 µM.
State the answer as a number, implicitly in %.

Input line: Notebook: pull reported inhibition at 0.01 µM for PI3K-δ (PI3K(p1108/p857) (h)) (Homo sapiens), entry C[C@H](Nc1ncnc2[nH]ccc(=O)c12)c1c(Cl)c2cccc(/C=N/O)c2c(=O)n1-c1ccccc1
Output line: 44

Input line: Param item: COc1cc(-c2cccc3c(Cl)c([C@H](C)Nc4ncnc5[nH]ccc(=O)c45)n(-c4ccccc4)c(=O)c23)cc(OC)c1F
Output line: 89

Input line: Let us now turn to C[C@H](Nc1ncnc2[nH]ccc(=O)c12)c1cc2cccc(-c3ccc(F)cc3)c2c(=O)n1-c1ccccc1
Output line: 105

Input line: Same read-out for C[C@H](Nc1ncnc2[nH]ccc(=O)c12)c1c(Cl)c2cccc(C#Cc3cccs3)c2c(=O)n1-c1ccccc1 ?
Output line: 71

###

# Measured on: DNA-PK(h) (Homo sapiens, UniProt P78527)
# Method description: Evaluation of inhibitory activity against DNA-PK (HTRF kinase assay, GST-cMyc-p53 substrate)
# Format: biochemical
# Assay setup: compound concentration 0.01 μM; read-out: EXP_VALUE(% Inhibition) DNA-PK(h) 0.01 μM
Task for the reader: assign each of the following compounds its reported inhibition at 0.01 µM.
Number first, unit second: that is the form wanted.

Input line: Requested read-out: inhibition at 0.01 µM. Entry: C[C@H](Nc1ncnc2[nH]ccc(=O)c12)c1c(Cl)c2cccc(N3CCC4CCCCC4C3)c2c(=O)n1-c1ccccc1 (some centres unmarked)
Output line: 2%

Input line: Query CC(C)Oc1ncc(-c2cccc3c(Cl)c([C@H](C)Nc4ncnc5[nH]ccc(=O)c45)n(-c4ccccc4)c(=O)c23)cn1 next
Output line: 64%

Input line: Do the same for C[C@H](Nc1ncnc2[nH]ccc(=O)c12)c1cc2cccc(-c3ccc(C(N)=O)cc3)c2c(=O)n1-c1ccccc1 please
Output line: 22%

Input line: Next record, please: C[C@H](Nc1ncnc2[nH]ccc(=O)c12)c1c(Cl)c2cccc(C#Cc3ccc(-c4ccccc4)cc3)c2c(=O)n1-c1ccccc1
Output line: -2.5%

Input line: Continue with C[C@H](Nc1ncnc2[nH]ccc(=O)c12)c1c(Cl)c2cccc(N3CCC(c4ccccc4)CC3)c2c(=O)n1-c1ccccc1
Output line: 7%

Input line: Try this compound too: C[C@H](Nc1ncnc2[nH]ccc(=O)c12)c1c(Cl)c2cccc(N3CCN(c4ccccc4O)CC3)c2c(=O)n1-c1ccccc1
Output line: 18%

Input line: Another compound: C[C@H](Nc1ncnc2[nH]ccc(=O)c12)c1c(Cl)c2cccc(-c3cccc(Cl)c3)c2c(=O)n1-c1ccccc1
Output line: 35%

Input line: What about this compound? C[C@H](Nc1ncnc2[nH]ccc(=O)c12)c1c(Cl)c2cccc(C(C)(C)O)c2c(=O)n1-c1ccccc1
Output line: -4%

Input line: Similarly, CCNc1ncc(-c2cccc3c(Cl)c([C@H](C)Nc4ncnc5[nH]ccc(=O)c45)n(-c4ccccc4)c(=O)c23)cn1 ?
Output line: 78%

Input line: Consider next the compound C[C@H](Nc1ncnc2[nH]ccc(=O)c12)c1c(Cl)c2cccc(C#Cc3ccc(C(F)(F)F)cc3)c2c(=O)n1-c1ccccc1 [Example 315, 2,2,2-trifluoroacetate] in the same way.
Output line: 18%

Input line: Same question, Cc1ccc(-c2cccc3cc([C@H](C)Nc4ncnc5[nH]ccc(=O)c45)n(-c4ccccc4)c(=O)c23)cn1 this time
Output line: 3%

Input line: Note, next up: C[C@H](Nc1ncnc2[nH]ccc(=O)c12)c1c(Cl)c2cccc(-c3ccco3)c2c(=O)n1-c1ccccc1
Output line: 86%

Input line: Same question for C[C@H](Nc1ncnc2[nH]ccc(=O)c12)c1c(C2CC2)c2cccc(Cl)c2c(=O)n1-c1ccccc1 please.
Output line: 58%

Input line: Okay, and C[C@H](Nc1ncnc2[nH]ccc(=O)c12)c1c(Cl)c2cccc(-c3ccc4[nH]cnc4c3)c2c(=O)n1-c1ccccc1 ?
Output line: 79%

Input line: Lookup C[C@H](Nc1ncnc2[nH]ccc(=O)c12)c1c(Cl)c2cccc(-c3cnc4nncn4c3)c2c(=O)n1-c1ccccc1
Output line: 61%

Input line: Same question, C[C@H](Nc1ncnc2[nH]ccc(=O)c12)c1c(Cl)c2cccc(-c3ccc(N4CCNCC4)cc3)c2c(=O)n1-c1ccccc1 this time
Output line: 89%

Input line: Then this compound: C[C@H](Nc1ncnc2[nH]ccc(=O)c12)c1c(Cl)c2cccc(NS(=O)(=O)c3ccc(F)cc3)c2c(=O)n1-c1ccccc1
Output line: 6%

Input line: How about C[C@H](Nc1ncnc2[nH]ccc(=O)c12)c1c(Cl)c2cccc(-c3cc(Cl)ccc3F)c2c(=O)n1-c1ccccc1 ?
Output line: 38%

Input line: What about this compound? COc1ncc(-c2cccc3c(Cl)c([C@H](C)Nc4ncnc5[nH]ccc(=O)c45)n(-c4ccccc4)c(=O)c23)cc1NS(C)(=O)=O
Output line: 76%

Input line: Another compound to look at: Cc1nc2cc(-c3cccc4c(Cl)c([C@H](C)Nc5ncnc6[nH]ccc(=O)c56)n(-c5ccccc5)c(=O)c34)ccc2[nH]1
Output line: 85%

Input line: Next compound up: C[C@H](Nc1ncnc2[nH]ccc(=O)c12)c1c(Cl)c2cccc(-c3cnc(C(C)(C)O)nc3)c2c(=O)n1-c1ccccc1
Output line: 66%

Input line: Further, for COc1cnc(-n2ccc(=O)c3c(N[C@@H](C)c4c(Cl)c5ccccc5c(=O)n4-c4ccccc4)ncnc32)nc1 ?
Output line: 3%

Input line: CC(=O)Nc1cccc2c(Cl)c([C@H](C)Nc3ncnc4[nH]ccc(=O)c34)n(-c3ccccc3)c(=O)c12 , same question.
Output line: 30%

Input line: Check CCOc1c(OC)ccc(-c2cccc3c(Cl)c([C@H](C)Nc4ncnc5[nH]ccc(=O)c45)n(-c4ccccc4)c(=O)c23)c1F too.
Output line: 60%

Input line: Try Cc1ccc(-c2cccc3c(Cl)c([C@H](C)Nc4ncnc5[nH]ccc(=O)c45)n(-c4ccccc4)c(=O)c23)o1 next.
Output line: 84%

Input line: Next compound up: Cc1cc(C#N)ccc1-c1cccc2c(Cl)c([C@H](C)Nc3ncnc4[nH]ccc(=O)c34)n(-c3ccccc3)c(=O)c12
Output line: 56%
